# System: 519858-162-T-J1-PDC complex spheroid growth, % test/control
# ASSAY_DETAILS: Anticancer human tumor 519858-162-T-J1-PDC patient-derived colon adenocarcinoma cell line growth inhibition [Asc]
# EXPERIMENTAL_CONDITIONS: second compound 1 µM; first compound 0.0949 µM; stronger effect = lower value
QUANTITY_MEASURED: viability, T/C (%)
Dear colleague, please return just the value in %, with no unit written.

[Q] # viability, T/C lookup, item NC(=O)C(=Cn1cnc(-c2cc(C(F)(F)F)cc(C(F)(F)F)c2)n1)c1cncnc1 + Cc1c(S(C)(=O)=O)c(-c2cc(F)cc(N3CCN(c4ccc(NS(=O)(=O)c5ccc(NC(CCN6CCC(C(=O)OCCCP(=O)(O)O)CC6)CSc6ccccc6)c(S(=O)(=O)C(F)(F)F)c5)cc4)CC3)c2)c(-c2ccc(Cl)cc2)n1C(C)C
[A] 71.6

[Q] Please do the same for CCN1C(C(=O)NC23CCC(C(=O)O)(CC2)CC3)C(c2cccc(Cl)c2F)C2(C(=O)Nc3cc(Cl)ccc32)C12CCCCC2 (stereo not drawn) + Cc1c(S(C)(=O)=O)c(-c2cc(F)cc(N3CCN(c4ccc(NS(=O)(=O)c5ccc(NC(CCN6CCC(C(=O)OCCCP(=O)(O)O)CC6)CSc6ccccc6)c(S(=O)(=O)C(F)(F)F)c5)cc4)CC3)c2)c(-c2ccc(Cl)cc2)n1C(C)C as well.
[A] 75.5

[Q] Please do the same for NC(=O)C(=Cn1cnc(-c2cc(C(F)(F)F)cc(C(F)(F)F)c2)n1)c1cncnc1 + CNC(C)C(=O)NC1CN(S(=O)(=O)c2cccc(S(=O)(=O)N3CCC4CCC(C(=O)NC(c5ccccc5)c5ccccc5)N4C(=O)C(NC(=O)C(C)NC)C3)c2)CCC2CCC(C(=O)NC(c3ccccc3)c3ccccc3)N2C1=O as well.
[A] 72.3

###

Could you please report measured viability, T/C for the items listed next?
# System: 519858-162-T-J1-PDC complex spheroid growth, % test/control
# ASSAY_DETAILS: Anticancer human tumor 519858-162-T-J1-PDC cell line growth inhibition [Asc];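 also: seven day drug exposure begun three days after spheroid seeding; 100% = DMSO vehicle wells and lower values mean less viable spheroid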
# EXPERIMENTAL_CONDITIONS: second compound 0.3 µM; first compound 0.0316 µM; stronger effect = lower value

[Q] Find the measured viability, T/C: item NC1CCC(NC2CC2c2ccccc2)CC1 (stereo not drawn) + CCN1C(C(=O)NC23CCC(C(=O)O)(CC2)CC3)C(c2cccc(Cl)c2F)C2(C(=O)Nc3cc(Cl)ccc32)C12CCCCC2 , target or system 519858-162-T-J1-PDC complex spheroid growth, % test/control.
[A] 95.4%

[Q] Please do the same for Cn1ncnc1[C@H]1c2n[nH]c(=O)c3cc(F)cc(c23)N[C@@H]1c1ccc(F)cc1 + CCN1C(C(=O)NC23CCC(C(=O)O)(CC2)CC3)C(c2cccc(Cl)c2F)C2(C(=O)Nc3cc(Cl)ccc32)C12CCCCC2 as well.
[A] 75.4%

[Q] Please do the same for O=C(c1ccc(F)c(F)c1Nc1ccc(I)cc1F)N1CC(O)([C@@H]2CCCCN2)C1 + CCN1C(C(=O)NC23CCC(C(=O)O)(CC2)CC3)C(c2cccc(Cl)c2F)C2(C(=O)Nc3cc(Cl)ccc32)C12CCCCC2 as well.
[A] 66.1%

###

# Test system: 519858-162-T-J1-PDC complex spheroid growth, % test/control
# ASSAY_DETAILS: Anticancer human tumor 519858-162-T-J1-PDC cell line growth inhibition [Asc];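 also: seven day drug exposure begun three days after spheroid seeding; 100% = DMSO vehicle wells and lower values mean less viable spheroid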
# EXPERIMENTAL_CONDITIONS: second compound 0.316 µM; first compound 0.0316 µM; stronger effect = lower value
# Text: Multicellular complex tumor spheroid response to apoptosis pathway targeting inhibitors Alrizomadlin, Pelcitoclax, and Dasminapant in combination with a variety of drugs and investigational agents in selected tumor cell lines […] Compounds. […] If the clinical Cmax for an agent had not been determined, the highest concentration tested was 10 microM. […]
QUANTITY_MEASURED: viability, T/C (%)
Dear colleague, please return just the value in %, with no unit written.

[Q] # viability, T/C lookup, item CCN1CCN(Cc2ccc(Nc3ncc(F)c(-c4cc(F)c5nc(C)n(C(C)C)c5c4)n3)nc2)CC1 + CNC(C)C(=O)NC1CN(S(=O)(=O)c2cccc(S(=O)(=O)N3CCC4CCC(C(=O)NC(c5ccccc5)c5ccccc5)N4C(=O)C(NC(=O)C(C)NC)C3)c2)CCC2CCC(C(=O)NC(c3ccccc3)c3ccccc3)N2C1=O
[A] 120

[Q] Please do the same for CCN1CCN(Cc2ccc(Nc3ncc(F)c(-c4cc(F)c5nc(C)n(C(C)C)c5c4)n3)nc2)CC1 + Cc1c(S(C)(=O)=O)c(-c2cc(F)cc(N3CCN(c4ccc(NS(=O)(=O)c5ccc(NC(CCN6CCC(C(=O)OCCCP(=O)(O)O)CC6)CSc6ccccc6)c(S(=O)(=O)C(F)(F)F)c5)cc4)CC3)c2)c(-c2ccc(Cl)cc2)n1C(C)C as well.
[A] 98.3

###

# System: 519858-162-T-J1-PDC complex spheroid growth, % test/control
# ASSAY_DETAILS: Anticancer human tumor 519858-162-T-J1-PDC cell line growth inhibition [Asc];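 also: seven day drug exposure begun three days after spheroid seeding; 100% = DMSO vehicle wells and lower values mean less viable spheroid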
# EXPERIMENTAL_CONDITIONS: second compound 0.0316 µM; first compound 1 µM; stronger effect = lower value
Could you please report measured viability, T/C for the items listed next?
Dear colleague, please return just the value in %, with no unit written.

[Q] # viability, T/C lookup, item C=CC(=O)N1CCN(c2nc(=O)n(-c3c(C)ccnc3C(C)C)c3nc(-c4c(O)cccc4F)c(F)cc23)C(C)C1 (configuration not stated) + CNC(C)C(=O)NC1CN(S(=O)(=O)c2cccc(S(=O)(=O)N3CCC4CCC(C(=O)NC(c5ccccc5)c5ccccc5)N4C(=O)C(NC(=O)C(C)NC)C3)c2)CCC2CCC(C(=O)NC(c3ccccc3)c3ccccc3)N2C1=O
[A] 79.1

[Q] Please do the same for C#Cc1c(F)ccc2cc(O)cc(-c3ncc4c(N5CC6CCC(C5)N6)nc(OCC56CCCN5CC(F)C6)nc4c3F)c12 (configuration not stated) + CNC(C)C(=O)NC1CN(S(=O)(=O)c2cccc(S(=O)(=O)N3CCC4CCC(C(=O)NC(c5ccccc5)c5ccccc5)N4C(=O)C(NC(=O)C(C)NC)C3)c2)CCC2CCC(C(=O)NC(c3ccccc3)c3ccccc3)N2C1=O as well.
[A] 102

[Q] Please do the same for COc1c(OCCCN2CCOCC2)ccc2c3n(c(=NC(=O)c4cnc(N)nc4)nc12)CCN3 + Cc1c(S(C)(=O)=O)c(-c2cc(F)cc(N3CCN(c4ccc(NS(=O)(=O)c5ccc(NC(CCN6CCC(C(=O)OCCCP(=O)(O)O)CC6)CSc6ccccc6)c(S(=O)(=O)C(F)(F)F)c5)cc4)CC3)c2)c(-c2ccc(Cl)cc2)n1C(C)C as well.
[A] 52.7

[Q] Please do the same for COc1c(OCCCN2CCOCC2)ccc2c3n(c(=NC(=O)c4cnc(N)nc4)nc12)CCN3 + CNC(C)C(=O)NC1CN(S(=O)(=O)c2cccc(S(=O)(=O)N3CCC4CCC(C(=O)NC(c5ccccc5)c5ccccc5)N4C(=O)C(NC(=O)C(C)NC)C3)c2)CCC2CCC(C(=O)NC(c3ccccc3)c3ccccc3)N2C1=O as well.
[A] 27.6

[Q] Please do the same for C#Cc1c(F)ccc2cc(O)cc(-c3ncc4c(N5CC6CCC(C5)N6)nc(OCC56CCCN5CC(F)C6)nc4c3F)c12 (configuration not stated) + Cc1c(S(C)(=O)=O)c(-c2cc(F)cc(N3CCN(c4ccc(NS(=O)(=O)c5ccc(NC(CCN6CCC(C(=O)OCCCP(=O)(O)O)CC6)CSc6ccccc6)c(S(=O)(=O)C(F)(F)F)c5)cc4)CC3)c2)c(-c2ccc(Cl)cc2)n1C(C)C as well.
[A] 89.5

[Q] Please do the same for CCN1CCN(Cc2ccc(Nc3ncc(F)c(-c4cc(F)c5nc(C)n(C(C)C)c5c4)n3)nc2)CC1 + CNC(C)C(=O)NC1CN(S(=O)(=O)c2cccc(S(=O)(=O)N3CCC4CCC(C(=O)NC(c5ccccc5)c5ccccc5)N4C(=O)C(NC(=O)C(C)NC)C3)c2)CCC2CCC(C(=O)NC(c3ccccc3)c3ccccc3)N2C1=O as well.
[A] 77.2

[Q] Please do the same for CCN1CCN(Cc2ccc(Nc3ncc(F)c(-c4cc(F)c5nc(C)n(C(C)C)c5c4)n3)nc2)CC1 + Cc1c(S(C)(=O)=O)c(-c2cc(F)cc(N3CCN(c4ccc(NS(=O)(=O)c5ccc(NC(CCN6CCC(C(=O)OCCCP(=O)(O)O)CC6)CSc6ccccc6)c(S(=O)(=O)C(F)(F)F)c5)cc4)CC3)c2)c(-c2ccc(Cl)cc2)n1C(C)C as well.
[A] 72.3

###

# Tested on: 519858-162-T-J1-PDC complex spheroid growth, % test/control
# ASSAY_DETAILS: Anticancer human tumor 519858-162-T-J1-PDC cell line growth inhibition [Asc];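 also: seven day drug exposure begun three days after spheroid seeding; 100% = DMSO vehicle wells and lower values mean less viable spheroid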
# EXPERIMENTAL_CONDITIONS: second compound 1 µM; first compound 0.949 µM; stronger effect = lower value
QUANTITY_MEASURED: viability, T/C

[Q] # viability, T/C lookup, item Cc1nc(N2CCC3(CC2)COC(C)C3N)c(CO)nc1Sc1ccnc(N)c1Cl (stereo unspecified) + CNC(C)C(=O)NC1CN(S(=O)(=O)c2cccc(S(=O)(=O)N3CCC4CCC(C(=O)NC(c5ccccc5)c5ccccc5)N4C(=O)C(NC(=O)C(C)NC)C3)c2)CCC2CCC(C(=O)NC(c3ccccc3)c3ccccc3)N2C1=O
[A] 92.5%
